- System: NCI-H1944
- measurement description: relative viability (nuclei count vs DMSO), 5 days (fraction); higher = more cells survive
- measurement parameters: first compound 0.01 µM
relative viability under 0.4 gets True, anything at or over 0.4 gets False.

compound	answer label
NC(=O)Nc1cc(-c2cccc(F)c2)sc1C(=O)N[C@H]1CCCNC1 [AZD7762] + N=C(N)NC(=N)NCCc1ccccc1 [Phenformin] (partner 250 µM)	True
NC(=O)Nc1cc(-c2cccc(F)c2)sc1C(=O)N[C@H]1CCCNC1 [AZD7762] + O=C(CCCCCCC(=O)Nc1ccccc1)NO [Vorinostat] (partner 1 µM)	False
NC(=O)Nc1cc(-c2cccc(F)c2)sc1C(=O)N[C@H]1CCCNC1 [AZD7762] + CC1(C)CCC(c2ccc(Cl)cc2)=C(CN2CCN(c3ccc(C(=O)NS(=O)(=O)c4ccc(N[C@H](CCN5CCOCC5)CSc5ccccc5)c(S(=O)(=O)C(F)(F)F)c4)cc3)CC2)C1 [Navitoclax] (partner 0.5 µM)	False
NC(=O)Nc1cc(-c2cccc(F)c2)sc1C(=O)N[C@H]1CCCNC1 [AZD7762] + C[C@]1(O)C[C@@H](c2nc(-c3ccc4ccc(-c5ccccc5)nc4c3)c3c(N)nccn32)C1 [Linsitinib] (partner 1 µM)	False
